Listed here are compounds together with their documented relative viability.
- Test system: LCLC-103H
- Test protocol: relative viability (nuclei count vs DMSO), 5 days (fraction); higher = more cells survive
- Condition notes: first compound 1.265 µM
Reply: number alone, nothing else.

Compound	relative viability
COc1cc(N2CCC(C(N)=O)CC2)ccc1Nc1nc(N)c(Cl)c(Nc2ccccc2S(=O)(=O)C(C)C)n1 [HG-5-88-01] + Cc1nc(Nc2ncc(C(=O)Nc3c(C)cccc3Cl)s2)cc(N2CCN(CCO)CC2)n1 [Dasatinib] (partner 0.075 µM)	0.373
Clc1ccc(Nc2nnc(Cc3ccncc3)c3ccccc23)cc1 [Vatalanib] + C[C@]1(O)C[C@@H](c2nc(-c3ccc4ccc(-c5ccccc5)nc4c3)c3c(N)nccn32)C1 [Linsitinib] (partner 1 µM)	1.06
COc1cc(N2CCC(C(N)=O)CC2)ccc1Nc1nc(N)c(Cl)c(Nc2ccccc2S(=O)(=O)C(C)C)n1 [HG-5-88-01] + CC(=O)Nc1cccc(-n2c(=O)n(C3CC3)c(=O)c3c(Nc4ccc(I)cc4F)n(C)c(=O)c(C)c32)c1 [Trametinib] (partner 0.02 µM)	0.69

Entry COc1cc(N2CCC(C(N)=O)CC2)ccc1Nc1nc(N)c(Cl)c(Nc2ccccc2S(=O)(=O)C(C)C)n1 [HG-5-88-01] + CS(=O)(=O)N1CCN(Cc2cc3nc(-c4cccc5[nH]ncc45)nc(N4CCOCC4)c3s2)CC1 [Pictilisib] (partner 1 µM) : reported relative viability = ? 0.608

----------
- Test system: NCI-H1793
- Test protocol: relative viability (nuclei count vs DMSO), 5 days (fraction); higher = more cells survive
- Condition notes: first compound 4 µM
Property label: relative viability
Reply: number alone, nothing else.

Guide cases for relative viability, answers given:
Compound	Experimental target	relative viability
Clc1ccc(Nc2nnc(Cc3ccncc3)c3ccccc23)cc1 [Vatalanib] + O=C(c1cc(Cc2n[nH]c(=O)c3ccccc23)ccc1F)N1CCN(C(=O)C2CC2)CC1 [Olaparib] (partner 8 µM)	NCI-H1793	0.78
COc1cc(N2CCC(C(N)=O)CC2)ccc1Nc1nc(N)c(Cl)c(Nc2ccccc2S(=O)(=O)C(C)C)n1 [HG-5-88-01] + O=C(c1cc(Cc2n[nH]c(=O)c3ccccc23)ccc1F)N1CCN(C(=O)C2CC2)CC1 [Olaparib] (partner 8 µM)	NCI-H1793	0.847
Clc1ccc(Nc2nnc(Cc3ccncc3)c3ccccc23)cc1 [Vatalanib] + NC(=O)Nc1cc(-c2cccc(F)c2)sc1C(=O)N[C@H]1CCCNC1 [AZD7762] (partner 0.2 µM)	NCI-H1793	0.286

Entry C[C@@H]1CN(CC(=O)Nc2ccc3c(c2)Cc2cccc(-c4cc(=O)cc(N5CCOCC5)o4)c2S3)C[C@H](C)O1 + O=C(c1cc(Cc2n[nH]c(=O)c3ccccc23)ccc1F)N1CCN(C(=O)C2CC2)CC1 [Olaparib] (partner 8 µM) : reported relative viability = ? 0.255

----------
- System: NCI-H2009
- Test protocol: relative viability (nuclei count vs DMSO), 5 days (fraction); higher = more cells survive
- Condition notes: first compound 0.04 µM
Listed here are compounds together with their documented relative viability.
Reply: number alone, nothing else.

Compound	Experimental target	relative viability
COc1cc(N2CCC(C(N)=O)CC2)ccc1Nc1nc(N)c(Cl)c(Nc2ccccc2S(=O)(=O)C(C)C)n1 [HG-5-88-01] + CS(=O)(=O)CCNCc1ccc(-c2ccc3ncnc(Nc4ccc(OCc5cccc(F)c5)c(Cl)c4)c3c2)o1 [Lapatinib] (partner 2 µM)	NCI-H2009	0.943
C[C@@H]1CN(CC(=O)Nc2ccc3c(c2)Cc2cccc(-c4cc(=O)cc(N5CCOCC5)o4)c2S3)C[C@H](C)O1 + CS(=O)(=O)N1CCN(Cc2cc3nc(-c4cccc5[nH]ncc45)nc(N4CCOCC4)c3s2)CC1 [Pictilisib] (partner 1 µM)	NCI-H2009	0.909
C[C@@H]1CN(CC(=O)Nc2ccc3c(c2)Cc2cccc(-c4cc(=O)cc(N5CCOCC5)o4)c2S3)C[C@H](C)O1 + Cc1nc(Nc2ncc(C(=O)Nc3c(C)cccc3Cl)s2)cc(N2CCN(CCO)CC2)n1 [Dasatinib] (partner 0.075 µM)	NCI-H2009	0.383

Entry COc1cc(N2CCC(C(N)=O)CC2)ccc1Nc1nc(N)c(Cl)c(Nc2ccccc2S(=O)(=O)C(C)C)n1 [HG-5-88-01] + Cc1nc(Nc2ncc(C(=O)Nc3c(C)cccc3Cl)s2)cc(N2CCN(CCO)CC2)n1 [Dasatinib] (partner 0.075 µM) : reported relative viability = ? 0.26

Data credit: the supplement of paper PMC10307832
